Values from the Kinase Knowledgebase extract (Sharma et al. 2016)

- measurementTarget: CDK2 (human) (UniProt P24941)
parameter: pIC50
# pIC50 = -log10(concentration in molar units)

Some solved cases for reference:
>  <smilesInput>
COc1cc2c(cc1OC1CCN(C)CC1)ncc1c3ccc(C#N)cc3[nH]c21

>  <pIC50>
5.24

$$$$
>  <smilesInput>
COc1cc2c(cc1OCCCN(C)C)ncc1c3ccc(C#N)cc3[nH]c21

>  <pIC50>
5.36

$$$$
>  <smilesInput>
COc1cc2c(cc1OCCCN1CCN(C)CC1)ncc1c3ccc(C#N)cc3[nH]c21

>  <pIC50>
6.32

$$$$

Read the next record carefully.
Endpoint output: pIC50 of COc1cc2ncc3c4ccc(C#N)cc4[nH]c3c2cc1OC . Value?
6.22

###

- measurementTarget: UniProt P48736
- Sequence (P48736 whole entry, looked up): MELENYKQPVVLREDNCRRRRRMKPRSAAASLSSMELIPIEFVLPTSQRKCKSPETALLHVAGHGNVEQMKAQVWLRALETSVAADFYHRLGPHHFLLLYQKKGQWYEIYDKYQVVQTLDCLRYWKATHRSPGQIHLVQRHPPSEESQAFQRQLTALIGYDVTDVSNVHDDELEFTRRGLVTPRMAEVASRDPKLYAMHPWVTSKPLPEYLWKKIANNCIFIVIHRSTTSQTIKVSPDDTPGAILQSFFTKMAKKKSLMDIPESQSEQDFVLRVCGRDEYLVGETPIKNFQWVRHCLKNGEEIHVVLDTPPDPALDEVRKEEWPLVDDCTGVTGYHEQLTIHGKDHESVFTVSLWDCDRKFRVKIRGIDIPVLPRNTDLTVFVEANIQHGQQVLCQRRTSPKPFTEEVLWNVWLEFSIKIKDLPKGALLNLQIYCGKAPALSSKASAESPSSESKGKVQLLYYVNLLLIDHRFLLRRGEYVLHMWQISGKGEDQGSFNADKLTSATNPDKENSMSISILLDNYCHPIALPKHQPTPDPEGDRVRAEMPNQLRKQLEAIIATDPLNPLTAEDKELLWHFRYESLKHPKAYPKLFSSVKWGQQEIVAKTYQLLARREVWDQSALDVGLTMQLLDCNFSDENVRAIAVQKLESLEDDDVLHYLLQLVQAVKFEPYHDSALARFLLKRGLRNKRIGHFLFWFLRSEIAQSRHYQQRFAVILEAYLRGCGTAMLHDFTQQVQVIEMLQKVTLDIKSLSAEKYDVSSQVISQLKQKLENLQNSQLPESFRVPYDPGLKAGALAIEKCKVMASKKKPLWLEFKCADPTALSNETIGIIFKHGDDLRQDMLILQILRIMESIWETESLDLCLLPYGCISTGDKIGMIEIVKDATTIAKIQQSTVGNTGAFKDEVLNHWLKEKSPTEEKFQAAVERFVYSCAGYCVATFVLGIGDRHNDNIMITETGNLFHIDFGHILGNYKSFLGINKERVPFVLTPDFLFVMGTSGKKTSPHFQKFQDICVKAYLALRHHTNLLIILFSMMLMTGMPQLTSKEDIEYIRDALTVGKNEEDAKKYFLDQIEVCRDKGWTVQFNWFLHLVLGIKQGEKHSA
parameter: pIC50
# pIC50 = -log10(concentration in molar units)

Endpoint output: pIC50 of COc1cc2ncc3c4ccc(C#N)cc4[nH]c3c2cc1OC . Value?
5.47
